STUDY_SYSTEM: UniProt:Q96EP0
Sequence (Q96EP0 695-1072 limits assumed): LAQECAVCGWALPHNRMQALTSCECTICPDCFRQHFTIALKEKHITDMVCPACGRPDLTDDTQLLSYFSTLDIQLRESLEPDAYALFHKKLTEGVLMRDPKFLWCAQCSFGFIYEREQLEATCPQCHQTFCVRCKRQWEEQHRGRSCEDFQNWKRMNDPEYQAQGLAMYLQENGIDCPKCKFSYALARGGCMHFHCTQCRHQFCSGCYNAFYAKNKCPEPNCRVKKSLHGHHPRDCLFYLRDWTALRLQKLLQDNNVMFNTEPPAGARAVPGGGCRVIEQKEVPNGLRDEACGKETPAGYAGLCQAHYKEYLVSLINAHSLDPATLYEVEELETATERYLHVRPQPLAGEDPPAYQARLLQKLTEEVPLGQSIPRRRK
PROTOCOL_DETAILS: Cell-free HTRF-based HOIP inhibition assay
Type: biochemical
Experimental: This assay was performed in the following steps: • a) synthesis of recombinant fragment of human E3 ubiquitin-protein ligase RNF31 (HOIP), expressed with purity >90% in E. coli system (the protein was prepared as 1 mg/mL stock in a standard formulation); • b) incubation of the compounds in a typical concentration range: 100-0.005 μM, at a final DMSO conc. […]
Entries and their IC50 values follow.

Worked examples follow.
1) COc1ccc(S(=N)(=O)/C=C/CNC(=O)c2ccc[nH]c2=O)cc1F (stereo not drawn) [Example 186] ... ≤ 1000 nM
2) O=C(NC/C=C/S(=O)(=O)c1ccccc1)c1cc2c([nH]c1=O)CCC(F)(F)C2 [Example 49] ... ≤ 1000 nM
3) CS(=O)(=O)/C=C/CNC(=O)c1cc2c([nH]c1=O)CCCC2 [Example 15] ... ≤ 10000 nM
4) O=C(NC/C=C/S(=O)(=O)c1ccc(Cl)cc1Cl)c1cc2c([nH]c1=O)CCCC2 [Example 32] ... ≤ 100 nM
5) COc1ccc(S(=O)(=O)/C=C/CNC(=O)c2cc3c([nH]c2=O)CCCC3)cc1F [Example 19] ... ≤ 100 nM

Prompt: Read the entry CC(C)COC(=O)N1CCc2[nH]c(=O)c(C(=O)NC/C=C/S(=O)(=O)c3ccccc3)cc2C1 [Example 119] and write its reported IC50.
Completion: ≤ 100 nM

Prompt: Read the entry O=C(NC/C=C/S(=O)(=O)c1ccc(Cl)cc1)c1cc2c([nH]c1=O)CCCCC2 [Example 36] and write its reported IC50.
Completion: ≤ 1000 nM

Prompt: Read the entry COc1ccc(S(=N)(=O)/C=C/CNC(=O)c2cc3c([nH]c2=O)CCC3)cc1F (stereo not drawn) [Example 151] and write its reported IC50.
Completion: ≤ 1000 nM

Prompt: Read the entry N=S(=O)(/C=C/CNC(=O)c1cc2c([nH]c1=O)CCCC2)c1ccccc1 (stereo not drawn) [Example 60] and write its reported IC50.
Completion: ≤ 1000 nM

Prompt: Read the entry COc1ccc(S(=N)(=O)/C=C/CNC(=O)c2cc3c([nH]c2=O)CCN(CC(F)(F)F)C3)cc1F (stereo not drawn) [Example 170] and write its reported IC50.
Completion: ≤ 1000 nM

Prompt: Read the entry O=C(NC/C=C/S(=O)(=O)c1ccc(Cl)cc1)c1cc2c([nH]c1=O)CCN(C(=O)OCCF)C2 [Example 93] and write its reported IC50.
Completion: ≤ 100 nM

Prompt: Read the entry CC1(C)CCc2[nH]c(=O)c(C(=O)NC/C=C/S(=O)(=O)c3ccccc3)cc2C1 [Example 48] and write its reported IC50.
Completion: ≤ 1000 nM
